System: Human papillomavirus type 1a E7 protein (residues 1-88)
Experiment: HPV1a E7 small-molecule binders, primary screen, biochemical, small-molecule microarray, residues 1-88, 635 nm (AID 1129)
Settings: small-molecule microarray binding, fluorescence 635 nm; higher = more signal
MEASUREMENT_LABEL: composite z-score
I only need the number, thanks.

For orientation, consider the following solved cases.
INSERT INTO assay_data (compound, observed) VALUES
  ('CCOC(=O)C[C@H]1[C@H](OC(=O)c2ccc(C(=O)c3ccccc3)cc2)[C@@H](NC(=O)c2ccc3ccccc3n2)c2cc(OCCCO)ccc2N1C(=O)Cc1ccc(OC)cc1', 0.656),
  ('[N-]=[N+]=NCc1ccccc1[C@@H]1OC(c2ccc(OCCCO)cc2)=N[C@]1(CCS(=O)(=O)c1ccccc1)C(=O)O', 0.843),
  ('COc1cc2c(cc1O)C=[N+](Cc1sc3ccccc3c1Cl)CC2', 0.0341),
  ('C#CCN(Cc1ccccc1Br)[C@H](/C=C/c1ccccc1)[C@@H](O)Cc1ccccc1', -0.548),
  ('C=CCC(OC(C)=O)[C@@H]1[C@@H](N(Cc2ccc(-c3cccc(C(F)(F)F)c3)o2)C(=O)c2ccc(-c3ccccc3)cc2)c2cc(OCCCO)ccc2N1C(=O)Cc1ccc2ccccc2c1 (stereo partly drawn)', -0.504),
  ('COc1cc2c(cc1O)C(C1CC1)N(Cc1cccc(OC(F)(F)F)c1)CC2 (stereo not drawn)', -0.922);

Enquiry: Fill in composite z-score for record `CCOC(=O)C1=C[C@@H](C(C)(C)C)N(S(=O)(=O)c2ccc(C)cc2)[C@H]1c1cccc2ccccc12`
Return: 0.716

Enquiry: Using known records, supply composite z-score for O=C1NC(=O)C2C1C=CC(C(O)c1ccco1)N2Nc1ccc(Cl)cc1Cl (stereo not drawn)
Return: 0.944

---

Target: Carbonic anhydrase 2 (Homo sapiens)
Assay: compounds binding carbonic anhydrase 2 – biochemical, small-molecule microarray, Alexa647-labelled CAII, profiling panel (AID 1122)
Conditions: CAII-A647 binding fluorescence, higher = more signal
Respond with rule met for composite z-score values of 0.6 and above, rule not met for values below.

Worked cases, answers included:
INSERT INTO measurements (compound, answer_label) VALUES
  ('C=CCC(OC(C)=O)[C@@H]1[C@@H](N(Cc2cc3ccccc3o2)C(=O)Cc2ccc(F)cc2)c2cc(OCCCO)ccc2N1C(=O)Cc1ccc2ccccc2c1 (stereo partly specified)', 'rule not met'),
  ('CCCCC(CC)C(O)C1C=CC2C(=O)N(C)C(=O)C2N1Nc1ccccc1 (stereo unspecified)', 'rule met'),
  ('CCOC(=O)C[C@H]1[C@H](OC(=O)c2ccccc2-c2ccccc2)[C@@H](NC(=O)c2ccc3ccccc3c2)c2cc(OCCCO)ccc2N1C(=O)c1ccccc1', 'rule not met'),
  ('CC(C)C[C@@H]1NC(=O)[C@@H]2C[C@H](C(=O)NCCCCCCN)[C@H](c3cccc(OCCO)c3)N2C1=O', 'rule met'),
  ('[N-]=[N+]=Nc1ccccc1C[C@@]1(C(=O)N2CCOCC2)N=C(c2ccc(OCCCO)cc2)O[C@@H]1c1ccccc1', 'rule not met');

Enquiry: Does `CCOC(=O)C[C@H]1[C@H](OC(=O)c2ccc(C(=O)c3ccccc3)cc2)[C@@H](NC(=O)C2CCCCC2)c2cc(OCCCO)ccc2N1C(=O)c1ccc2ccccc2n1` have a reported composite z-score of at least 0.6?
Return: rule not met

Enquiry: Hi team, for O=C1CS(=O)(=O)C(c2cccc([N+](=O)[O-])c2)N1c1ccccc1 (stereo unspecified) , is the recorded composite z-score at or above 0.6?
Return: rule met

Enquiry: For this compound, is measured composite z-score 0.6 or higher? `COc1ccc([Si](C)(C)[C@@H]2[C@@H](CCO)O[C@]3(C(=O)N(Cc4ccccc4)c4ccc(NC(=O)[C@H](C)O)cc43)[C@H]2C)cc1`
Return: rule not met
